Taken from PubChem BioAssay (Tox21).

assay: qHTS assay for small molecules that induce genotoxicity in human embryonic kidney cells expressing luciferase-tagged ATAD5 (AID 651632); details: HEK293T ATAD5-luciferase induction, 16 h; series mostly up to 83.3 µM; also: nearly all actives have a fitted effect of over 15% in size
Records with an inconclusive call do not appear. Active and inactive are the calls of the source. Calls follow the shape of the dose curve; as a rule, active = well fitted activation curve with a large enough effect in the repeat runs; inconclusive = weak or mixed curves; inactive = no such curve, though single readings can be large or run the other way.
readout.label: outcome

Worked cases, answers included:
{"molecule": "COc1cc(NC(C)CCCN)c2ncccc2c1 (stereo not drawn)", "reported.measurement": "inactive"}
{"molecule": "CC(C)Cc1ccc(CC(=O)O)cc1", "reported.measurement": "inactive"}
{"molecule": "CC(C)C(=O)OCCOc1ccccc1", "reported.measurement": "inactive"}
{"molecule": "CC(=O)NCCO", "reported.measurement": "inactive"}
{"molecule": "Cc1c(C2(c3cc(Br)c(O)c(Br)c3C)OS(=O)(=O)c3ccccc32)cc(Br)c(O)c1Br", "reported.measurement": "inactive"}
{"molecule": "FC(F)(F)C(F)(F)C(F)(F)C(F)(F)CCI", "reported.measurement": "inactive"}

Looking up Nc1ccc(NC(=O)c2ccc(N)cc2)cc1 , I see its outcome listed as inactive

Looking up CC[C@H]1OC(=O)[C@H](C)[C@@H](O[C@H]2C[C@@](C)(OC)[C@@H](O)[C@H](C)O2)[C@H](C)[C@@H](O[C@@H]2O[C@H](C)C[C@H](N(C)C)[C@H]2O)[C@](C)(O)C[C@@H](C)/C(=N\OCOCCOC)[C@H](C)[C@@H](O)[C@]1(C)O , I see its outcome listed as inactive

Looking up CCCCCCC(O)CCOC(C)=O (stereo not drawn) , I see its outcome listed as inactive

Looking up CC(=O)OCCC1CCCCC1 , I see its outcome listed as inactive

Looking up Nc1nc(-c2ccc([N+](=O)[O-])cc2)cs1 , I see its outcome listed as inactive

Looking up CC1=CC[C@@]23C[C@@H]1C(C)(C)[C@@H]2CC[C@H]3C , I see its outcome listed as inactive

Looking up Nc1ccc(S(=O)(=O)NCc2ccccc2)cc1 , I see its outcome listed as inactive

###

assay: qHTS assay to identify small molecule antagonists of the estrogen related receptor signaling pathway with the pleiotropic PPARgamma coactivator (PGC) from Tox21 10K library (AID 1224841); details: PGC/ERR reporter cell line, ONE-Glo luciferase, 18 h; series mostly up to 92.4 µM; also: actives are mostly falling curves and most rising ones were filed inactive; nearly all actives have a fitted effect of over 50% in size
Results filed as inconclusive are left out. Activity calls are given as the source filed them. The rule behind the calls is not given here.
Outcome field: choose from active, inactive

Returns: the outcome recorded for CCCOC(=O)c1c(Cl)c(Cl)c(Cl)c(Cl)c1C(=O)OCCC in this assay. inactive

Returns: the outcome recorded for Nc1c(Cl)cc(Cl)cc1[N+](=O)[O-] in this assay. inactive

Returns: the outcome recorded for CC12CC3CC(C)(C1)CC(N)(C3)C2 in this assay. inactive

Returns: the outcome recorded for CCCCCCCCCCCCCC(=O)OCC(O)CO (configuration not stated) in this assay. inactive

Returns: the outcome recorded for ClC1=C(Cl)C1(Cl)Cl in this assay. inactive

Returns: the outcome recorded for CCN(Cc1cccc(S(=O)(=O)O)c1)c1ccc(C(=C2C=CC(=[N+](CC)Cc3cccc(S(=O)(=O)O)c3)C=C2)c2ccc(O)cc2S(=O)(=O)[O-])cc1 in this assay. active

Returns: the outcome recorded for CCN(CC)CCOc1ccccc1C(=O)CCc1ccccc1 in this assay. inactive

Returns: the outcome recorded for COc1cc(NS(=O)(=O)c2ccc(N)cc2)nc(C)n1 in this assay. inactive

Returns: the outcome recorded for CCN(CC)c1ccc(C(=C2C=CC(=[N+](CC)CC)C=C2)c2ccc(S(=O)(=O)O)cc2S(=O)(=O)[O-])cc1 in this assay. active

Returns: the outcome recorded for CCN(CC)c1cccc(O)c1 in this assay. inactive

Returns: the outcome recorded for COC1CCC=CO1 (configuration not stated) in this assay. inactive

Returns: the outcome recorded for Nc1ccc(F)cc1 in this assay. inactive

Returns: the outcome recorded for [Cl][Nd]([Cl])[Cl] in this assay. inactive

Returns: the outcome recorded for CCCCCCCCCCCC(=O)OCC(O)CO (configuration not stated) in this assay. inactive

Returns: the outcome recorded for CC(=O)OCC1=C(C(=O)O)N2C(=O)[C@@H](NC(=O)CSc3ccncc3)[C@H]2SC1 in this assay. inactive

Returns: the outcome recorded for O=C(O)CN1C(=O)c2cccc3cccc(c23)C1=O in this assay. inactive

Returns: the outcome recorded for N[C@@H](Cc1cc(I)c(O)c(I)c1)C(=O)O in this assay. inactive

###

biological target: Voltage-gated inwardly rectifying potassium channel KCNH2 (Homo sapiens) (UniProt Q12809); assay: Human Ether-a-go-go-Related Gene (hERG) channel small molecule antagonists: fluorescence cell-based qHTS assay (AID 1671200); settings: hERG-U2OS cells, FluxOR thallium flux fluorescence; series mostly up to 76.8 µM; also: nearly all actives have a fitted effect of over 50% in size
Sequence (Q12809 whole entry, looked up): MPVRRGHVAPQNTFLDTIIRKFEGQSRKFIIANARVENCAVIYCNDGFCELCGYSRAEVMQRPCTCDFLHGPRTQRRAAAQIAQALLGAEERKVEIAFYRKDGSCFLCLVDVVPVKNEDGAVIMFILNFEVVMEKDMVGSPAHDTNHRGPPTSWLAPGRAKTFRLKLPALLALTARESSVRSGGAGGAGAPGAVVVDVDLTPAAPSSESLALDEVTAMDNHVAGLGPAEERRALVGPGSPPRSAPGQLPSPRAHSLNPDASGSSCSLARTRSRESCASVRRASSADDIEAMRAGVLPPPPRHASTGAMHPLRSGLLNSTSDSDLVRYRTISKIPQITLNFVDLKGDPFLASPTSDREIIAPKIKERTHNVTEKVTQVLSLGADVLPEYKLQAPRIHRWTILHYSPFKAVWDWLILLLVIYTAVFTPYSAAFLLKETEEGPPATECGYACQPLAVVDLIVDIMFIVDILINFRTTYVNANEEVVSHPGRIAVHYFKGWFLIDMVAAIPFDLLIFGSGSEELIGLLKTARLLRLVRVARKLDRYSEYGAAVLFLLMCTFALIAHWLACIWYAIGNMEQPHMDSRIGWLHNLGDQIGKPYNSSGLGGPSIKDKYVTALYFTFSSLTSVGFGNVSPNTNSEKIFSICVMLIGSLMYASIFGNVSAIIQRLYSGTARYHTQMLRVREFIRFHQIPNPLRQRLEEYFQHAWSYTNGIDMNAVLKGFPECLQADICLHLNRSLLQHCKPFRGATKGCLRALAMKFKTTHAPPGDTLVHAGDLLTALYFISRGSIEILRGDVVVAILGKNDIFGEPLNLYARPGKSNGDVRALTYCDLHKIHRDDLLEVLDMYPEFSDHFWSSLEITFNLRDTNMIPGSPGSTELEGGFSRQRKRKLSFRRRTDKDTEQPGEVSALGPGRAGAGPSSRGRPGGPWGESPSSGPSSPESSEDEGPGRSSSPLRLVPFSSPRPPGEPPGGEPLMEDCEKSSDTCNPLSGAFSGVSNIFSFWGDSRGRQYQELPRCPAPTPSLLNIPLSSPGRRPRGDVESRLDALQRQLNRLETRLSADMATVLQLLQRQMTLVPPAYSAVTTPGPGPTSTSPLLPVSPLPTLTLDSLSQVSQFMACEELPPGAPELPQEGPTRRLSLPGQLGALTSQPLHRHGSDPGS
Records with an inconclusive call do not appear. The source made the active and inactive calls. Calls follow the shape of the dose curve; as a rule, active = well fitted inhibition curve with a large enough effect in the repeat runs; inconclusive = weak or mixed curves; inactive = flat fitted curve, though single readings scatter.
Outcome field: choose from active, inactive

Returns: the outcome recorded for CCCCOCCOC(=O)c1cccnc1 in this assay. inactive

Returns: the outcome recorded for CCOC(=O)Oc1ccc(CCNC(=O)[C@H](CCSC)NC(C)=O)cc1OC(=O)OCC in this assay. inactive

Returns: the outcome recorded for CC(=O)N[C@@H](Cc1ccc(O)cc1)C(=O)O in this assay. inactive

Returns: the outcome recorded for CC1=C2[C@@H]([C@H](C)CC[C@H]2/C=C(\C)C(=O)O)[C@H](O)C1 in this assay. inactive

Returns: the outcome recorded for CC(=O)NNC(C)=O in this assay. inactive

Returns: the outcome recorded for CCCCOC(=O)CCCCC(=O)OCCCC in this assay. inactive

Returns: the outcome recorded for Cc1c(C2(c3cc(Br)c(O)c(Br)c3C)OS(=O)(=O)c3ccccc32)cc(Br)c(O)c1Br in this assay. inactive

Returns: the outcome recorded for Cc1cccc2sc(N)nc12 in this assay. inactive

Returns: the outcome recorded for CCN(CC)c1ccc(C(=C2C=CC(=[N+](CC)CC)C=C2)c2ccc(S(=O)(=O)O)cc2S(=O)(=O)[O-])cc1 in this assay. inactive

Returns: the outcome recorded for CC(O)Cn1cnc2c1c(=O)n(C)c(=O)n2C (stereo unspecified) in this assay. inactive

Returns: the outcome recorded for CC(C)(C(=O)c1cccnc1)c1cccnc1 in this assay. inactive

Returns: the outcome recorded for CN1CCCN(C(c2ccccc2)c2ccc(Cl)cc2)CC1 (stereo unspecified) in this assay. active

Returns: the outcome recorded for CNc1c2c(nn1C)CCCC2 in this assay. inactive

Returns: the outcome recorded for COC(=O)c1sccc1S(N)(=O)=O in this assay. inactive

Returns: the outcome recorded for C[C@@H]1[C@H](O)[C@@H](C)/C=C/C=C\C=C\C=C\C=C\C=C\C=C\[C@H](O[C@@H]2O[C@H](C)[C@@H](O)[C@H](N)[C@@H]2O)C[C@@H]2O[C@](O)(C[C@@H](O)C[C@@H](O)[C@H](O)CC[C@@H](O)C[C@@H](O)CC(=O)O[C@H]1C)C[C@H](O)[C@H]2C(=O)O (stereo in doubt) in this assay. inactive

Returns: the outcome recorded for Cc1ccc2c(c1[N+](=O)[O-])C(=O)c1ccccc1C2=O in this assay. inactive

Returns: the outcome recorded for Oc1ccc2c(c1)Cc1ccccc1-2 in this assay. inactive

Returns: the outcome recorded for FC(F)(F)C(F)(F)C(F)(F)C(F)(F)CCI in this assay. inactive

Returns: the outcome recorded for CC(=O)NCCO in this assay. inactive

Returns: the outcome recorded for COc1cc(OC)c2ccc(=O)oc2c1 in this assay. inactive

Returns: the outcome recorded for O=C1OC(=O)c2c(Br)c(Br)c(Br)c(Br)c21 in this assay. inactive

Returns: the outcome recorded for CCOC(=O)N1CCC(Nc2ccc(Cl)cc2N)CC1 in this assay. inactive

Returns: the outcome recorded for O=C1[C@@H]2[C@H]3CC[C@H](C3)[C@@H]2C(=O)N1CCCCN1CCN(c2ncccn2)CC1 in this assay. inactive

Returns: the outcome recorded for CCN(CC)CCOc1ccccc1C(=O)CCc1ccccc1 in this assay. active

Returns: the outcome recorded for CCC1CCC(CCC(=O)O)C1 (stereo unspecified) in this assay. inactive

Returns: the outcome recorded for CCCc1nc2c(C)cc(-c3nc4ccccc4n3C)cc2n1Cc1ccc(-c2ccccc2C(=O)O)cc1 in this assay. inactive

Returns: the outcome recorded for CCCCCCC(CO)CCCC (stereo unspecified) in this assay. inactive

Returns: the outcome recorded for O=C(O)c1cccc(Oc2ccccc2)c1 in this assay. inactive

Returns: the outcome recorded for CC[C@@H](CO)NCCN[C@@H](CC)CO in this assay. inactive

Returns: the outcome recorded for Cc1c[nH]c2ccccc12 in this assay. inactive

Returns: the outcome recorded for O=C(O)c1cc(Cl)cc(Cl)c1O in this assay. inactive

Returns: the outcome recorded for CCN(CC)C(=O)/C(C#N)=C/c1cc(O)c(O)c([N+](=O)[O-])c1 in this assay. inactive

Returns: the outcome recorded for O=C(O)c1cccc(C[C@@H]2COc3ccc(OCc4nc5cc(F)ccc5s4)cc3[C@@H]2O)c1 in this assay. inactive

Returns: the outcome recorded for COc1ccc(-n2nc(C(F)F)cc2-c2ccc(S(C)=O)cc2)cc1 (stereo unspecified) in this assay. inactive

Returns: the outcome recorded for CCN(Cc1cccc(S(=O)(=O)O)c1)c1ccc(C(=C2C=CC(=[N+](CC)Cc3cccc(S(=O)(=O)O)c3)C=C2)c2ccccc2S(=O)(=O)[O-])cc1 in this assay. inactive

Returns: the outcome recorded for CC(C)(C)S in this assay. inactive

Returns: the outcome recorded for CCCCCCCC(=O)OCCCCCC in this assay. inactive

Returns: the outcome recorded for CC(C)N=C=NC(C)C in this assay. inactive

Returns: the outcome recorded for C/C(C=O)=C\c1ccccc1 in this assay. inactive

Returns: the outcome recorded for O=C1c2ccccc2C(=O)c2c(O)ccc(O)c21 in this assay. inactive

Returns: the outcome recorded for CC1CCc2nccnc21 (stereo unspecified) in this assay. inactive

Returns: the outcome recorded for O=C(O)c1ccc(O)cc1O in this assay. inactive

Returns: the outcome recorded for CC(=O)Oc1cccc(O)c1 in this assay. inactive

Returns: the outcome recorded for N[C@@H](Cc1cc(I)c(O)c(I)c1)C(=O)O in this assay. inactive

Returns: the outcome recorded for CCSC(=O)N(CC)CC in this assay. inactive

Returns: the outcome recorded for C=CCOC(=O)COCCC(C)C in this assay. inactive
